Test system: U2OS
Experiment: Incucyte cell viability with U2OS; also: filed as whole numbers so only -1 and 0 and 1 occur
Format: toxicity, cell-based
Conditions: human, 18 h, 10 µM, compound concentration 10 uM, replicate number 1, timepoint 18 hours
Exercise: state measured Growth Rate for each of the compounds provided.

For orientation, consider the following solved cases.
1. C[C@@H](Oc1cc(-n2cnc3ccc(CN4CCN(C)CC4)cc32)sc1C(N)=O)c1ccccc1C(F)(F)F	0
2. Cn1cc(Cl)c2c(Oc3c(F)cc(Nc4cc(Cl)nc(N)n4)cc3F)ccnc21	0
3. C[C@@H](NC(=O)Nc1cc2[nH]ncc2c(CO)n1)c1ccccc1	0

Batch of 8 compounds: report Growth Rate for each.
1. CC(C)[C@H](CO)Nc1nc(Nc2cccc(Cl)c2)c2ncn(C(C)C)c2n1
2. CN(c1cc(C(F)(F)F)nc(OCCC(=O)O)n1)c1cccc2c1CCC2
3. CN1CCN(Cc2ccc(-c3cnc4[nH]cc(-c5ccc6[nH]ccc6c5)c4c3)cc2)CC1
4. CCCCCNC(=N)N/N=C/c1c[nH]c2ccc(OC)cc12.O=C(O)/C=C\C(=O)O [TEGASEROD MALEATE]
5. CN(C)CCCN1c2ccccc2CCc2ccccc21.Cl [IMIPRAMINE HYDROCHLORIDE]
6. Oc1cccc(-c2nc(N3CCOCC3)c3oc4ncccc4c3n2)c1
7. C/C(=C/C=C/C(C)=C/C(=O)O)c1cc(C(C)(C)C)cc(C(C)(C)C)c1OCC(F)F
8. N#CCNC(=O)c1ccc(-c2ccnc(Nc3ccc(N4CCOCC4)cc3)n2)cc1

Response line:
0
0
0
0
1
0
1
0

###

System: U2OS
Test: Multiplex assay against U2OS
Assay type: toxicity, cell-based
Details: human, 48 h, 10 µM, compound concentration 10 uM, replicate 1
Use 80% as the dividing line for Population Tubulin-Different-Phenotype (%), with the line itself on the Criterion met side and lower values as Criterion not met.

Below, 5 compounds whose answers are already recorded.
1. C[C@@H](Oc1cc(-n2cnc3ccc(CN4CCN(C)CC4)cc32)sc1C(N)=O)c1ccccc1C(F)(F)F	Criterion met
2. N#Cc1cccc(C(=O)Nc2cc(-c3ccccc3)nn2-c2ccccc2)c1	Criterion met
3. CCCCCNC(=N)N/N=C/c1c[nH]c2ccc(OC)cc12.O=C(O)/C=C\C(=O)O [TEGASEROD MALEATE]	Criterion met
4. CC(C)C[C@H](NC(=O)[C@H](Cc1ccccc1)NC(=O)CNC(=O)CNC(=O)[C@@H](N)Cc1ccc(O)cc1)C(=O)O	Criterion not met
5. CCCc1cc(C)[nH]c(=O)c1CNC(=O)c1cc(-c2ccc(N3CCN(C(C)C)CC3)nc2)cc2c1cnn2C(C)C	Criterion met

Prompt line: Answer whether Population Tubulin-Different-Phenotype (%) of CC(Cc1ccc(O)c(O)c1)C(C)Cc1ccc(O)c(O)c1 (stereo unspecified) [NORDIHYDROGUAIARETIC ACID] is greater than or equal to 80%.
Response line: Criterion not met

Prompt line: Check this compound for Population Tubulin-Different-Phenotype (%) at or above 80%: Cc1c(Nc2ccc(S(=O)(=O)N3CCN(C)CC3)cc2F)nc2ccc(-c3cnn(C4CC4)c3)cn2c1=O
Response line: Criterion not met

Prompt line: Is it the case that CC(/C=C1\SC(=S)N(CCCC(=O)Nc2ccc(C(=O)O)c(O)c2)C1=O)=C\c1ccccc1 has Population Tubulin-Different-Phenotype (%) reaching or exceeding 80%?
Response line: Criterion not met

Prompt line: Item C=CC(=O)Nc1cc(-n2c(=O)ccc3cnc4ccc(-c5ccc(NS(C)(=O)=O)cc5)cc4c32)ccc1C with Population Tubulin-Different-Phenotype (%) of 80% or above?
Response line: Criterion not met

Prompt line: Does Population Tubulin-Different-Phenotype (%) meet or surpass 80% for CCCCN(CC)c1nc(C)nc2c1c(C)cn2-c1c(C)cc(C)cc1C.Cl ?
Response line: Criterion not met
